experiment: inhibitors of TNFa-induced NFkB p65 translocation, primary screen, imaging, HUVEC, MLSMR starter and 10KST1 sets (AID 438); conditions: HUVEC TNFa-induced p65 nuclear translocation; at 2 µM, 0% TNFa-plus-vehicle, 100% no-TNFa wells;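 further: compound added about 3h40 before a 20 min TNFalpha stimulation; signal is the nuclear over cytoplasmic p65 intensity ratio per well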
The source made the active and inactive calls.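 How the source made its calls: active means inhibition above 20% together with a positive visual image hit; inconclusive means visual image hit but inhibition not above 20%; inactive means no visual image hit.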
Mark one answer only. Choices: active, inactive

Qu. Which outcome did this test record for the molecule COc1ccc(C)cc1NC(=O)C1CCN(S(=O)(=O)c2cccc3cccnc23)CC1 ?
Ans. inactive

Qu. Short answer needed: outcome of this test for Cn1c2ccc(F)cc2c2ncn(CCN3CCOCC3)c(=O)c21 ?
Ans. inactive

Qu. Would you mind telling me which call this test gave CC1=Nn2c(nnc2-c2ccccn2)SC1 ?
Ans. inactive

Qu. Hey, what did the test say about CC(=O)Nc1ccc(S(=O)(=O)N2CCN=C2C)cc1 ?
Ans. inactive

Qu. Could you please tell me the result logged for CCCCCOC(=O)C1=C(C)N(C)C(=O)NC1c1cc(Br)c(O)c(OC)c1 (stereo not drawn) in this assay?
Ans. inactive

Qu. For COC(=O)Nc1ccccc1C(=O)N1CCCCC1 , what call appears in the results of this test?
Ans. inactive

Qu. Hello, I am checking results. What call was entered for OC1C=CSc2nc3ccccc3n21 (stereo not drawn) ?
Ans. inactive

Qu. What outcome does the record of this test show for COc1cc(C(=O)Nc2cccc(-c3nncn3C)c2)cc(OC)c1OC ?
Ans. inactive

Qu. Per the records of this test, what outcome belongs to CCOc1cccc(-n2nnnc2-c2ccc(OC)cc2)c1 ?
Ans. inactive

Qu. Give the logged outcome of this assay for the following molecule: COC(=O)c1ccc(C)c(NS(=O)(=O)c2ccc3c(c2)OCCO3)c1
Ans. inactive

Qu. Could you please tell me the result logged for CCOC(=O)Cn1c(CN2CCN(c3cccc(Cl)c3)CC2)nc2c1c(=O)[nH]c(=O)n2C in this assay?
Ans. inactive

Qu. Which outcome did this test record for the molecule CCCc1cc(C(=O)Nc2sc3c(c2C#N)CCC3)no1 ?
Ans. inactive

Qu. Returns: the outcome recorded for COc1cc2c(C#N)c(N3CCOCC3)nc(N)c2c(N)n1 in this assay.
Ans. inactive

Qu. Hi, sorry to bother you, what did the test record for CCOC(=O)Cn1nnc(-c2ccc(SC)cc2)n1 ?
Ans. inactive

Qu. Please indicate how the test categorized CC1(C)OC(=O)C(=CNc2ccccc2F)C(=O)O1 .
Ans. inactive

Qu. Test call for this molecule, please: Cc1cc(C)c2[nH]c(=O)c(C(c3nnnn3Cc3ccc4c(c3)OCO4)N3CCC(C)CC3)cc2c1 (stereo not drawn)
Ans. inactive

Qu. Recorded test call requested for COc1cccc(NC(=O)CSc2nnc(-c3cc(-c4ccccn4)nc4ccccc34)o2)c1
Ans. inactive

Qu. Lab log entry: Cc1ccc(OCc2nnc(SCC(=O)N3CCOCC3)n2C)cc1 — outcome as called in the assay?
Ans. inactive

Qu. Per the records of this test, what outcome belongs to O=C(COc1ccccc1F)NC1CC1 ?
Ans. inactive

Qu. Hello, I am checking results. What call was entered for CC(C)N(Cc1nc(-c2ccc(Cl)cc2)no1)C(=O)CN(C)S(=O)(=O)c1ccc(Cl)cc1 ?
Ans. inactive

Qu. Per the records of this test, what outcome belongs to CCOC(=O)c1ccc(NC(=O)CCc2c(C)nc3ncnn3c2C)cc1 ?
Ans. inactive

Qu. # lookup: test call for CC(C)n1c(CN2CCN(C)CC2)nc2c1c(=O)n(C)c(=O)n2C
Ans. inactive

Qu. Dear all, I need the recorded test outcome for O=C(CSc1nnc2ncccn12)N1CCCCCC1 , thank you.
Ans. active
